target: ColQ1-CU (Bacillus cereus); assay: biochemical; set-up: species or system B. cereus strain Q1
Sequence (B9J3S4 94-765 limits assumed): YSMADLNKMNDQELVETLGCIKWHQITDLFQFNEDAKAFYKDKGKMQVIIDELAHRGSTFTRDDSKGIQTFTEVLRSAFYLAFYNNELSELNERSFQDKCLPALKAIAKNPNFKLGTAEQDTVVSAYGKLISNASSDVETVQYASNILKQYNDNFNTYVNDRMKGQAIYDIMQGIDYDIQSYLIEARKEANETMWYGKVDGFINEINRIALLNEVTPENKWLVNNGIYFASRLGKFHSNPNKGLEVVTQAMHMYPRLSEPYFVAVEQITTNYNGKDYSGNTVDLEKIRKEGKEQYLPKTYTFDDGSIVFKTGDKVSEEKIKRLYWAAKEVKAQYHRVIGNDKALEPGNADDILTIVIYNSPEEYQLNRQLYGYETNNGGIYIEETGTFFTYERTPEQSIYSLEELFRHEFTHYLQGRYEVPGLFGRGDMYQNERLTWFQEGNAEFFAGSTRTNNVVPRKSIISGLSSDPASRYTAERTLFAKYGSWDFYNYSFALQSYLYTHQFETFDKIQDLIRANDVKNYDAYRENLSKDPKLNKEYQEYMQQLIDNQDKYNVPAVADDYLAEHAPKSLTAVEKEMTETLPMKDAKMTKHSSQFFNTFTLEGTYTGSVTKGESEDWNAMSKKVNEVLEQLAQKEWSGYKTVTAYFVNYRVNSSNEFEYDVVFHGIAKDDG
Criterion: inhibition at 100 µM meeting or surpassing 60%. Met: t. Not met: f.

compound | groupLabel
O=P(O)(O)C(Cl)(Cl)P(=O)(O)O [Clodronate disodium, reference compound] | f
O=P([O-])(O)C(Sc1ccc(Cl)cc1)P(=O)([O-])O.[Na+].[Na+] [Tiludronate disodium, reference compound] | t
CCCCCN(C)CCC(O)(P(=O)(O)O)P(=O)(O)O [Ibandronate sodium, reference compound] | f
O=P(O)(O)C(O)(Cc1cccnc1)P(=O)(O)O [Risedronate sodium, reference compound] | f
CCOP(=O)(OCC)c1nc2ccccc2nc1P(=O)(OCC)OCC | f
CCOP(=O)(OCC)c1nc2ccc(C)cc2nc1P(=O)(OCC)OCC [Compound 11c] | f
O=P(O)(O)c1nc2ccccc2nc1P(=O)(O)O | f
NCCCC(O)(P(=O)([O-])O)P(=O)(O)O.[Na+] [Alendronate sodium, reference compound] | t
COc1ccc2nc(P(=O)(O)O)c(P(=O)(O)O)nc2c1 | f
NCCCCCC(O)(P(=O)(O)O)P(=O)(O)O [Neridronate, reference compound] | f
Cc1ccc2nc(P(=O)(O)O)c(P(=O)(O)O)nc2c1 | f
O=c1[nH]c2cc(Cl)c(Cl)cc2nc1P(=O)(O)O | f
CC(C)CC(C(=O)NO)C(=O)NCCn1cc(COc2ccccc2F)nn1 (stereo not shown) | t

====

molecular target: MMP-3 (Homo sapiens); construct: catalytic domains of three human MMPs; purchased Sigma-Aldrich; experiment: MMP inhibition assay, MMP-3; type: biochemical
Sequence (P08254 100-272 limits assumed): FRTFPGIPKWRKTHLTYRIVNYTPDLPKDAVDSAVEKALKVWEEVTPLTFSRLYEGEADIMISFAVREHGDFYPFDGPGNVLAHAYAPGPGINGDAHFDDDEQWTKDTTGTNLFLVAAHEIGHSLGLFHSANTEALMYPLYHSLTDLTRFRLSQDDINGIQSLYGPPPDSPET
Entries and their IC50 values follow.
endpointName: IC50

molecule | endpointName | result
CC(=O)Nc1ccccc1OCc1cn(CCNC(=O)C(CC(C)C)C(=O)NO)nn1 (stereo not drawn) [Compound 27] | IC50 | > 100 µM
O=C(Nc1ccc(Cl)c(Cl)c1)c1ccc2nc(P(=O)(O)O)c(P(=O)(O)O)nc2c1 [Compound 14] | IC50 | > 100 µM
O=P([O-])(O)C(Sc1ccc(Cl)cc1)P(=O)([O-])O.[Na+].[Na+] [Tiludronate disodium, reference compound] | IC50 | > 100 µM
O=P(O)(O)c1nc2ccc(-c3ccc(Cl)cc3)cc2nc1P(=O)(O)O [Compound 15] | IC50 | > 100 µM
NCCCC(O)(P(=O)([O-])O)P(=O)(O)O.[Na+] [Alendronate sodium, reference compound] | IC50 | > 100 µM
O=P(O)(O)c1nc2cc(Cl)c(Cl)cc2nc1P(=O)(O)O [Compound 13] | IC50 | 33 µM

====

Entries and their pIC50 values follow.
assay: in vitro; details: human, HEK293 cells (embryonal kidney)
pIC50: −log10 of the molar value.
endpointName: pIC50

compound | endpointName | result
O=P(O)(O)c1nc2cc(Cl)c(Cl)cc2nc1P(=O)(O)O | pIC50 | 4.00
CC(=O)Nc1ccccc1OCc1cn(CCNC(=O)C(CC(C)C)C(=O)NO)nn1 (stereo not shown) | pIC50 | < 4.00
O=C(Nc1ccc(Cl)c(Cl)c1)c1ccc2nc(P(=O)(O)O)c(P(=O)(O)O)nc2c1 | pIC50 | < 4.00
O=P(O)(O)c1nc2ccc(-c3ccc(Cl)cc3)cc2nc1P(=O)(O)O | pIC50 | < 4.00
